The origin of these recorded values is ChEMBL document CHEMBL4346684.

- Test system: Staphylococcus aureus
- assay procedure: Bactericidal activity against inducibly erythromycin-resistant and methicillin resistant Staphylococcus aureus PU32 expressing i-ermA assessed as reduction in colony formation incubated in CAMHB medium for 20 hrs followed by 24 hrs subculturing in the medium without test compound
- Format: functional
quantity measured: MBC

>  <molecule>
CC[C@H]1OC(=O)[C@H](C)[C@@H](OC(=O)CCNCCCc2cccnc2)[C@H](C)[C@@H](O[C@@H]2O[C@H](C)C[C@H](N(C)C)[C@H]2O)[C@](C)(OC)C[C@@H](C)/C(=N\OC)[C@H](C)[C@H]2OC(=O)O[C@@]21C

>  <MBC>
> 256 µg/mL

$$$$
>  <molecule>
CC[C@H]1OC(=O)[C@H](C)[C@@H](OC(=O)NCCCCc2cccnc2)[C@H](C)[C@@H](O[C@@H]2O[C@H](C)C[C@H](N(C)C)[C@H]2O)[C@](C)(OC)C[C@@H](C)/C(=N\OC)[C@H](C)[C@H]2OC(=O)O[C@@]21C

>  <MBC>
> 256 µg/mL

$$$$
>  <molecule>
CC[C@H]1OC(=O)[C@H](C)[C@@H](OC(=O)CCNCCCc2ccc(-n3ccnc3)cc2)[C@H](C)[C@@H](O[C@@H]2O[C@H](C)C[C@H](N(C)C)[C@H]2O)[C@](C)(OC)C[C@@H](C)/C(=N\OC)[C@H](C)[C@H]2OC(=O)O[C@@]21C

>  <MBC>
128 µg/mL

$$$$

Now let's try a different one.
Asked: Name the recorded MBC for `C#CCNCCC(=O)O[C@H]1[C@H](C)[C@@H](O[C@@H]2O[C@H](C)C[C@H](N(C)C)[C@H]2O)[C@](C)(OC)C[C@@H](C)/C(=N\OC)[C@H](C)[C@H]2OC(=O)O[C@]2(C)[C@@H](CC)OC(=O)[C@@H]1C` .
Given back: > 128 µg/mL
